Measured AC50 accompanies every entry in the list below.
Biological target: Long-chain-fatty-acid--AMP ligase FadD28 (Mycobacterium tuberculosis, UniProt P9WQ59)
Sequence (P9WQ59 whole entry): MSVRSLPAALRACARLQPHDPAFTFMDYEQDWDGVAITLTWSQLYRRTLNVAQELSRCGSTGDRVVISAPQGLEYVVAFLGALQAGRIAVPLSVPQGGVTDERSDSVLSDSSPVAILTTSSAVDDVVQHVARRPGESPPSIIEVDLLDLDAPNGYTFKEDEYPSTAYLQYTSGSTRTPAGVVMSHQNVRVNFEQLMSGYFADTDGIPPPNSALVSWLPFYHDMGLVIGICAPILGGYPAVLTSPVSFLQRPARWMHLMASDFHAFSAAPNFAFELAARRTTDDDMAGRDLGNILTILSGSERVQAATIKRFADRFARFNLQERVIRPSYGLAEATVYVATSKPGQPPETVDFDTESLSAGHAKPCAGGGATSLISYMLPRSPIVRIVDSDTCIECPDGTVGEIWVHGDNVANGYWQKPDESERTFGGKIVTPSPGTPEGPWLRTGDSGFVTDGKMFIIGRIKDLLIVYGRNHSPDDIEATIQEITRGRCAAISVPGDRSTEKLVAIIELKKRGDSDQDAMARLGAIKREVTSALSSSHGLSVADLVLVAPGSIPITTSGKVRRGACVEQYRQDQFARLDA
Experiment: Fluorescence polarization aasay to screen for inhibitors that compete for the binding of FadD28 to a bisubstrate Measured in Biochemical System Using Plate Reader - 2147-01_Inhibitor_Dose_CherryPick_Activity.
Assay type: functional, Mycobacterium tuberculosis H37Rv
The source made the active and inactive calls. How the calls were made is not given here.

A selection of reference data follows.
{"smiles_structure": "CC(C)(C)c1ccc(C(=O)Nc2sc3c(c2C(=O)O)CCC3)cc1", "AC50": "> 100 µM (inactive)"}
{"smiles_structure": "Cc1ccc(N=C(S)C2=C(O)c3sccc3N(C)S2(=O)=O)cc1", "AC50": "> 100 µM (inactive)"}
{"smiles_structure": "COc1cc(/C=C2\\SC(=S)N(NC(=O)c3cccc(O)c3)C2=O)ccc1O", "AC50": "32 µM (inactive)"}
{"smiles_structure": "Cc1cccc(NC(=O)CN2C(=O)S/C(=C\\c3cccn3-c3cccc(C(=O)O)c3)C2=O)c1", "AC50": "0.519 µM (active)"}
{"smiles_structure": "CCN(CC)S(=O)(=O)c1cc(C(=O)OCC(=O)Nc2cccc(Br)c2)ccc1F", "AC50": "6.81 µM (active)"}

Moving on to another compound below.
The reported AC50 of the compound `O=C(O)CCC(=O)Nc1ccc(C(=O)OCC(=O)c2ccc(Cl)cc2Cl)cc1` was > 100 µM (inactive)
